Data provenance is patent US4874869A.

- System: sorbitol accumulation in the lens and the sciatic nerve
- TEST PROTOCOL: Reduction or inhibition of sorbitol accumulation in the lens and the sciatic nerve of streptozotocin-induced diabetic rats
- Format: in vivo, rat
- MEASUREMENT CONDITIONS: lens; 10 mg/kg oral, 4, 8 and 25 h after streptozotocin; vs no compound
Please mark Condition met if the recorded Inhibition of sorbitol accumulation is equal to or greater than 90%, and Condition not met if it falls below.

These recorded examples may help you get a feel for the data.
>  <COMPOUND>
CC1CC2(NC(=O)NC2=O)c2cc(F)ccc2O1 (centres unmarked)

>  <MEASURED ON>
sorbitol accumulation in the lens and the sciatic nerve

>  <CLASS ASSIGNMENT>
Condition met

$$$$
>  <COMPOUND>
CC1(C)CC2(NC(=O)NC2=O)c2cc(Cl)cc(Cl)c2O1 (centres unmarked)

>  <MEASURED ON>
sorbitol accumulation in the lens and the sciatic nerve

>  <CLASS ASSIGNMENT>
Condition not met

$$$$

Input line: Decide: Inhibition of sorbitol accumulation of O=C1NC(=O)C2(CCOc3ccc(F)cc32)N1 (centres unmarked) [reference compound] >= 90%?
Output line: Condition not met

Input line: Inhibition of sorbitol accumulation >= 90% for CC1CC2(NC(=O)NC2=O)c2cc(Cl)ccc2O1 (centres unmarked) ?
Output line: Condition met

Input line: Please indicate if the recorded Inhibition of sorbitol accumulation for CC1(C)CC2(NC(=O)NC2=O)c2cc(F)ccc2O1 (centres unmarked) meets or exceeds 90%.
Output line: Condition not met

Input line: Threshold query (Inhibition of sorbitol accumulation >= 90%) on CC1Oc2ccc(Cl)cc2C12NC(=O)NC2=O (centres unmarked)
Output line: Condition met

---

- MEASURED ON: aldose reductase (Bos taurus)
- Construct: Aldose reductase was prepared by the method of Hayman et al; from tissue
- TEST PROTOCOL: Inhibition effect on aldose reductase
- Assay type: biochemical
- MEASUREMENT CONDITIONS: 3 × 10^-7 (M)
Give measured Inhibition on aldose reductase for each item. Keep answers brief.
Give bare numbers, in %.

Check out these entries, answers already filled in.
>  <COMPOUND>
CC1(C)CC2(NC(=O)NC2=O)c2cc(Cl)ccc2O1 (centres unmarked)

>  <Inhibition on aldose reductase [%]>
8

$$$$
>  <COMPOUND>
O=C1NC(=O)C2(CCOc3ccc(F)cc32)N1 (centres unmarked) [reference compound]

>  <Inhibition on aldose reductase [%]>
17

$$$$
>  <COMPOUND>
CC1(C)CC2(NC(=O)NC2=O)c2cc(F)ccc2O1 (centres unmarked)

>  <Inhibition on aldose reductase [%]>
12

$$$$

Batch of 2 compounds: report Inhibition on aldose reductase for each.
1. CC1CC2(NC(=O)NC2=O)c2cc(Cl)ccc2O1 (centres unmarked)
2. CC1CC2(NC(=O)NC2=O)c2cc(F)ccc2O1 (centres unmarked)

Output line:
[31, 31]

---

Give measured Inhibition on aldose reductase for each item. Keep answers brief.
- MEASURED ON: aldose reductase (Bos taurus)
- Construct: Aldose reductase was prepared by the method of Hayman et al; from tissue
- TEST PROTOCOL: Inhibition effect on aldose reductase
- Type: biochemical
- MEASUREMENT CONDITIONS: 10^-7 (M)
Answers are plain numbers, in %.

>  <COMPOUND>
CC1CC2(NC(=O)NC2=O)c2cc(F)ccc2O1 (centres unmarked)

>  <Inhibition on aldose reductase [%]>
7

$$$$

Batch: Inhibition on aldose reductase for all items listed.
1. CC1(C)CC2(NC(=O)NC2=O)c2cc(F)ccc2O1 (centres unmarked)
2. O=C1NC(=O)C2(CCOc3ccc(F)cc32)N1 (centres unmarked) [reference compound]
3. CC1CC2(NC(=O)NC2=O)c2cc(Cl)ccc2O1 (centres unmarked)
4. CC1(C)CC2(NC(=O)NC2=O)c2cc(Cl)ccc2O1 (centres unmarked)

Output line:
0
2
0
-4

---

- MEASURED ON: aldose reductase (Bos taurus, UniProt P16116)
- Construct: Aldose reductase was prepared by the method of Hayman et al; from tissue
- TEST PROTOCOL: Inhibition effect on aldose reductase
- Type: biochemical
- MEASUREMENT CONDITIONS: 10^-6 (M)
READOUT NAME: Inhibition on aldose reductase (%)
Numbers only, in %.

The examples below pair each entry with its known result.
>  <MOLECULE>
CC1(C)CC2(NC(=O)NC2=O)c2cc(F)ccc2O1 (centres unmarked)

>  <MEASURED ON>
aldose reductase (Bos taurus, UniProt P16116)

>  <UNITS SYMBOL>
%

>  <Inhibition on aldose reductase>
40

$$$$
>  <MOLECULE>
O=C1NC(=O)C2(CCOc3ccc(F)cc32)N1 (centres unmarked) [reference compound]

>  <MEASURED ON>
aldose reductase (Bos taurus, UniProt P16116)

>  <UNITS SYMBOL>
%

>  <Inhibition on aldose reductase>
53

$$$$

For the 3 molecules below, give their Inhibition on aldose reductase values.
1. CC1CC2(NC(=O)NC2=O)c2cc(Cl)ccc2O1 (centres unmarked)
2. CC1CC2(NC(=O)NC2=O)c2cc(F)ccc2O1 (centres unmarked)
3. CC1(C)CC2(NC(=O)NC2=O)c2cc(Cl)ccc2O1 (centres unmarked)

Output line:
[84, 77, 47]
